# pEC50 annotations
# Tested on: Nucleic Acid
# PROTOCOL TEXT: Binding affinity to Escherichia coli pUC19 DNA assessed as relaxation of supercoiled DNA by agarose gel electrophoresis in presence of Cu ions
# Type: nucleic-acid assay
Remember the convention: pEC50 equals -log10 of concentration in molar.

>>> result_number("CCC[C@@H]1C(=O)OC2c3cc(C)cc(O)c3C3=C(C(=O)c4c(O[C@H]5C[C@@H](O)[C@@H](O)[C@H](C)O5)cccc4C3=O)N21 (mixture of isomers)")
4.07

Note: attention shifts to another entry.
What value of pEC50 on Nucleic Acid does CCCC[C@@H]1C(=O)OC2c3cc(C)cc(O)c3C3=C(C(=O)c4c(O[C@H]5C[C@@H](O)[C@@H](O)[C@H](C)O5)cccc4C3=O)N21 (mixture of isomers) have? 3.84
